Test system: ENR+CD organoids (ISC to Paneth cell differentiation)
Test: Primary screen: basal (non-stimulated) lysozyme secretion LYZ.NS, 2.5-D 384-well ENR+CD organoid differentiation
Format: cell-based, mouse
Conditions: primary screen; dose 0.40 uM; FC vs plate median
Description: High-throughput screening.
Structures can show the parent of a compound that is named as a salt.
PARAMETER: Dose.FC.LYZ.NS (log2 fold change)
Provide only the numeric value, understood in log2 fold change.

Dose.FC.LYZ.NS reported for this compound O=C(O)Cn1nnc(-c2cc(N3CCC(Oc4cc(F)ccc4Br)CC3)no2)n1 : 0.031

Dose.FC.LYZ.NS reported for this compound Cl.Cl.NC1(c2ccc(-c3nc4ccn5c(=O)[nH]nc5c4cc3-c3ccccc3)cc2)CCC1 [MK-2206 2HCl] : −0.063

Dose.FC.LYZ.NS reported for this compound O=c1cc(N2CCOCC2)oc2c1ccc1ccccc12 : 0.023

Dose.FC.LYZ.NS reported for this compound FC(F)(F)c1ccc(/C=C/c2nc(COc3ccc(CCCCn4ccnn4)cc3)co2)cc1 : −0.194

Dose.FC.LYZ.NS reported for this compound COc1ccc(-c2nc3ccc(C4=NNC(=O)CC4C)cc3[nH]2)cc1 (centres unmarked) : 0.063

Dose.FC.LYZ.NS reported for this compound CCC(CC)(NC(=O)C(C)C)C(=O)N[C@@H](CCCN=C(N)N)C(=O)NC1(C(=O)NC(c2ccc(F)cc2)c2ccc(F)cc2)CCCC1 : −0.010

Dose.FC.LYZ.NS reported for this compound CN(Cc1cnc2nc(N)nc(N)c2n1)c1ccc(C(=O)N[C@@H](CCC(=O)O)C(=O)O)cc1 [Methotrexate] : −0.038

Dose.FC.LYZ.NS reported for this compound CN(c1ncccc1CNc1nc(Nc2ccc3c(c2)CC(=O)N3)ncc1C(F)(F)F)S(C)(=O)=O : −0.152

Dose.FC.LYZ.NS reported for this compound O=C(O)/C=C/c1ccc(Cn2ccnc2)cc1 [Ozagrel HCl] : 0.000

Dose.FC.LYZ.NS reported for this compound O=[N+]([O-])C=Cc1ccc2c(c1)OCO2 : −0.010

Dose.FC.LYZ.NS reported for this compound NCC(=O)Nc1ccc(-n2nc(C(F)(F)F)cc2-c2ccc3c(ccc4ccccc43)c2)cc1 : 0.033

Dose.FC.LYZ.NS reported for this compound CCCC(=O)Nc1cccc(NC(=O)c2ccccc2Br)c1 : −0.027

Dose.FC.LYZ.NS reported for this compound Oc1cc(O)cc(/C=C/c2ccc(O)c(O)c2)c1 : 0.043

Dose.FC.LYZ.NS reported for this compound Nc1nc(CC(=O)Nc2ccc(CCNC[C@H](O)c3ccccc3)cc2)cs1 : −0.030

Dose.FC.LYZ.NS reported for this compound O=C(Nc1cccnc1)N1CCC(Cc2cccc(Oc3ccc(C(F)(F)F)cn3)c2)CC1 : −0.077

Dose.FC.LYZ.NS reported for this compound CCc1cncnc1N1CCN(Cc2nc3ccc(C(F)(F)F)cc3[nH]2)CC1 : 0.122

Dose.FC.LYZ.NS reported for this compound COc1cc(OC)c(NC(=O)Nc2cc(C)on2)cc1Cl : −0.011

Dose.FC.LYZ.NS reported for this compound CCCCCCCCCCCCCCCCn1cc[n+](Cc2ccccc2)c1C.[I-] : −0.188

Dose.FC.LYZ.NS reported for this compound C1=N/C2=N/c3ccc(OCCN4CCCC4)c(c3)COC/C=C/COCc3cccc(c3)C(=C1)N2 [Pacritinib (SB1518)] : −0.034

Dose.FC.LYZ.NS reported for this compound C[C@](O)(COc1ccc(C#N)cc1)C(=O)Nc1ccc(C#N)c(C(F)(F)F)c1 : 0.028

Dose.FC.LYZ.NS reported for this compound CC(C)(C)n1nc(-c2ccc(Cl)cc2)c2c(N)ncnc21 : 0.012

Dose.FC.LYZ.NS reported for this compound CCCC(C)NC(=O)c1ccc(Cl)c(Cl)c1 (centres unmarked) : −0.028

Dose.FC.LYZ.NS reported for this compound O=C(O)/C=C/c1ccc(Cn2ccnc2)cc1 [Ozagrel] : 0.044
